# method_notes: AUC in mouse at 30 mg/kg, po
# Assay type: ADME, organism-based
# stated_conditions: in vivo
experimental_endpoint: AUC
Output should be the measured figure followed by the unit it is expressed in.

Form field AUC, entry CC(=O)N[C@H]1CC[C@H](Nc2nccc(-c3c(-c4ccccc4)noc3C)n2)CC1 : 5.3 µM·h

* * *

# target: CYP2C9 (Homo sapiens, UniProt P11712)
# Sequence (P11712 whole entry): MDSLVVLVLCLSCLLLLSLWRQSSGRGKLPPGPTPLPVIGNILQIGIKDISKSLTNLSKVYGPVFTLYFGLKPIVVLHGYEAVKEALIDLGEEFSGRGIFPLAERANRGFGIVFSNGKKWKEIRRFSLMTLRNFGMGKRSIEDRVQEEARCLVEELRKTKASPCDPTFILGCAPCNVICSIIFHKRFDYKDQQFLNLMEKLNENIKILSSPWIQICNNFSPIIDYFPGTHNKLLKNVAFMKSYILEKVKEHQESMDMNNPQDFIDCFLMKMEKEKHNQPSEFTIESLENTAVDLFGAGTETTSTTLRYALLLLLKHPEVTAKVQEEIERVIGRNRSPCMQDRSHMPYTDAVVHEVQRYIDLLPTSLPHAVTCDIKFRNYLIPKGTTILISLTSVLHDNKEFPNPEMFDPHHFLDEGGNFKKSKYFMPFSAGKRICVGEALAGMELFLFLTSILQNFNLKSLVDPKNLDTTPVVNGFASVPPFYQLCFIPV
# method_notes: Inhibition of CYP2C9 (unknown origin) at 5 uM relative to control
# Format: ADME
experimental_endpoint: inhibition at 5 µM (%)
Kindly provide the numeric value in % only, without the unit symbol.

compound CC(=O)N[C@H]1CC[C@H](Nc2nccc(-c3c(-c4ccccc4)noc3C)n2)CC1 , inhibition at 5 µM observed: 59

Hey, just so you know, these numbers are from ChEMBL document CHEMBL4251696.
